# System: MDA-MB-468 breast
# Assay Overview: NCI-60 one-dose screen, 48 h
# Particulars: 10 µM unless noted
The panel holds about 83,000 compounds, 20% with a hit somewhere; the sample as a whole holds those more often. The source made the active and inactive calls. The calls were made as follows: active = growth percent below 10; inactive = the rest.
Labels: T for active, F for inactive

Molecule	Assigned Class
O=C1C(N2CCOCC2)=Cc2cccc3cccc1c23	F
Cc1cnc(N)nc1OCCNC(=O)c1cccc(-c2ccc(S(=O)(=O)Nc3ccc4c(c3)N(C(=O)C3CC3)CCC4)cc2)c1	F
CCN1C(=O)N(CC)C2SC(N/N=C/c3ccccc3)=NC21 (stereo not drawn)	F
Nc1ncn([C@@H]2O[C@H](CO)[C@@H](O)C2(F)F)c(=O)n1	F
C=C1C(=O)O[C@H]2[C@H]1CC/C(COC(=O)CCCCCCC(=O)OC/C1=C/CC[C@@]3(C)O[C@H]3[C@H]3OC(=O)C(=C)[C@@H]3CC1)=C\CC[C@@]1(C)O[C@@H]21	T
C=CCSc1ccc2c(c1)C(N1CCNCC1)=Nc1ccccc1O2	F
CCN(CC)CCCC(C)Nc1cc(-c2cccc(OC(F)(F)F)c2)nc2ccc(N3CCCC3)cc12 (stereo not drawn)	T
O=C(Nc1ccc(-n2cc(-c3ccncc3)c(-c3ccc(O)c(Cl)c3)n2)cc1)Nc1ccc(Cl)c(C(F)(F)F)c1	T
Cc1ccc(C)c2c1sc1nc(N3CCOCC3)c(C#N)c(=O)n12	F
CN(C)C(=O)c1cc2cnc(Nc3ccc(-c4csc5c(=O)cc(N6CCOCC6)oc45)cc3)nc2n1C1CCCC1	T
FC(F)(F)Sc1ccc(/C=C/c2cc(/C=C/c3ccc(SC(F)(F)F)cc3)n(-c3ccccc3)n2)cc1	F
C=C(C)[C@@H]1CC[C@]2(C(=O)NCCCCCN(CCC#N)CCC#N)CC[C@]3(C)[C@H](CC[C@@H]4[C@@]5(C)CCC(=O)C(C)(C)[C@@H]5CC[C@]43C)[C@@H]12	F
CCOC(=O)c1ccc(NC(=O)CCCN(CC)CC)cc1	F
Cc1cc(Nc2nc(SCc3ccc(C(=O)Nc4ccc(F)cc4N)cc3)nn3cccc23)n[nH]1	F
O=C(Nc1cccc([N+](=O)[O-])c1)c1ccc2ccccc2c1O	F
Cc1cccc(NC(=O)c2sc3nc4c(cc3c2N)CCC4)c1C	F
CCOC(=O)[C@@H](Cc1ccccc1)NC(=O)c1[nH]c2ccc(Cl)cc2c(=O)c1C	F
O=C(CSc1nc2ccccc2[nH]1)Nc1ccc(-c2nc3ccccc3s2)c(Cl)c1	F
